# TARGET_DESC: T1, Human B cell maturation antigen (BCMA, CD269) (human, UniProt Q02223 1-54)
# T1 construct: Flow cytometry used whole BCMA on NCI-H929 and RPMI-8226-BCMA cells; also called hBCMA
# T1 sequence: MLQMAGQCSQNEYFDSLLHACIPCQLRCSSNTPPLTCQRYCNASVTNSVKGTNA
# TEST_PROTOCOL: ELISA, plate coated with 1 ug/ml soluble BCMA (recombinant TrxA-BCMA), OD450 against IgG concentration
Some binders, each annotated with its measured EC50 (read off the curve).

Consider the worked cases shown below.
* Humanized antibody hu5D2 (antibody, human IgG1, kappa, V domains shown, N-linked glycan at Asn300, also called Hu5D2 antibody; BCMA antibody) VH: QVQLVQSGAEVVKPGASVKMSCKASGYTFTSFLIHWVKQAPGQGLEWIGFIIPGNGGTKYNQKFQGKATLTSDTSSSTAYMELSSLRSEDSAVYYCARYDGSFEGYFDVWGQGTTLTVSS VL: DVVMTQSPLSLPVSLRQPASISCRSSQSLVHSDGNTYLHWYLQKPGQSPRLLIYKVSNRDSGVPDRFSGSGSGTDFTLKISRVEAEDLGVYFCSQSTHWPWTFGQGTKLEIKR | ~0.02 µg/mL
* c5D2 (antibody, human IgG1, kappa, V domains shown, VH/VL of BCMA-A2-6H4-5D2 fused to human IgG1 and kappa constant domains; also called chimeric antibody c5D2) VH: EVQLQQSGPELVKPGASVKMSCKASGYTFTSFLIHWVKQKPGQGLEWIGFIIPYNDGTKYNEKFKGKATLTSDKSSSTAYMELSSLTSEDSAVYYCARYDGSFEGYFDVWGAGTTLTVSS VL: DVLMTQTPLSLPVSLRDQASISCRSSQSLVHSDGNTYLHWYLQKPGQSPKLLIYKVSNRFSGVPDRFSGSGSGTDFTLKISRVEAEDLGVYFCSQSTHVPWTFGGGTKLEIKT | ~0.05 µg/mL
* Hybridoma monoclonal antibody BCMA-A2-6H4-5D2 (antibody, V domains shown, Murine hybridoma antibody from BalB/c mice; also called clone BCMA-A2-6H4-5D2; CCTCC C2022188) VH: EVQLQQSGPELVKPGASVKMSCKASGYTFTSFLIHWVKQKPGQGLEWIGFIIPYNDGTKYNEKFKGKATLTSDKSSSTAYMELSSLTSEDSAVYYCARYDGSFEGYFDVWGAGTTLTVSS VL: DVLMTQTPLSLPVSLRDQASISCRSSQSLVHSDGNTYLHWYLQKPGQSPKLLIYKVSNRFSGVPDRFSGSGSGTDFTLKISRVEAEDLGVYFCSQSTHVPWTFGGGTKLEIK | ~0.01 µg/mL

Let's switch to this binder now.
Prompt line: Given the binder J6M0 (antibody, V domains shown) VH: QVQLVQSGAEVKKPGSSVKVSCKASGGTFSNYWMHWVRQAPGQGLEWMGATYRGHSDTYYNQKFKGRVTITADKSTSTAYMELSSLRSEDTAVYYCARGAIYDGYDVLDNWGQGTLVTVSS VL: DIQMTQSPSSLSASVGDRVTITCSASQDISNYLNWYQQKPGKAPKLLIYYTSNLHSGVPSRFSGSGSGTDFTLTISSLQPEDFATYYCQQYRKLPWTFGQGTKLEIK , what is its reported EC50 (read off the curve)?
Response line: ~0.06 µg/mL
